Experiment: tubulin staining increase by stabilizing compounds – imaging, high-content imaging, primary screen (AID 2205);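 on % tubulin-high responders: anti alpha tubulin signal scored within the nucleus-defined area of each cell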
Settings: HeLa tubulin immunostaining HCS, 24 h, at 10 µM; stronger effect = higher value, share of cells brighter than vehicle mean+2SD
The campaign covered roughly 200,000 compounds. About 1,600 (0.8%) were called active. What follows is part of a selection rich in actives, with near analogues and random picks from the rest.

# COMPOUND, RESULT UNITS, % tubulin-high responders
measured = [
    ("CCOc1ccc(NS(=O)(=O)c2ccc(C)c(C(N)=O)c2)cc1", "%", 1.97),
    ("O=C(CSc1ccccn1)Nc1nc2c(ccc3ccccc32)s1", "%", 2.26),
    ("O=C(CSc1ccc2nnc(-c3ccccc3)n2n1)N1CCCc2ccccc21", "%", 2.62),
    ("Cc1ccc(C(=O)OCC(=O)NCc2ccc3c(c2)OCO3)s1", "%", 1.75),
    ("COC(=O)C1=C(Nc2ccc(OC)cc2)C=C(C)C(C(=O)OC)C1c1ccc(C)cc1 (stereo not given)", "%", 2.3),
]

###

Experiment: tubulin staining increase by stabilizing compounds – imaging, high-content imaging, primary screen (AID 2205);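 on toxicity: 0% = mean cell density of plate MIN control wells and 100% = no cells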
Conditions: HeLa tubulin immunostaining HCS, 24 h, at 10 µM; measured here: cytotoxicity by cell density
Among all 200,000 compounds or so, about 1,600 (0.8%) were called active. The sample as a whole holds a higher share of actives than the screen did.

# COMPOUND, toxicity [%]
measured = [
    ("CCCOC(=O)c1[nH]c2c(c1C)C(=O)CC(c1cccs1)C2 (centres undefined)", 48.6),
    ("CCC(=O)/C(=C(/O)c1ccccc1)c1nc2ccccc2[nH]1", 1.79),
    ("Cc1noc(C)c1S(=O)(=O)Nc1ccc(C(=O)N2CCN(c3ccc(F)cc3)CC2)cc1", 5.68),
    ("O=C(N/N=C/c1ccc(OCC2COCCO2)cc1)c1ccc(Br)cc1 (centres undefined)", 8.95),
]

###

Assay: tubulin staining increase by stabilizing compounds – imaging, high-content imaging, primary screen (AID 2205);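 on toxicity: 0% = mean cell density of plate MIN control wells and 100% = no cells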
Conditions: HeLa tubulin immunostaining HCS, 24 h, at 10 µM; measured here: cytotoxicity by cell density
About 1,600 (0.8%) of roughly 200,000 compounds were called active. Many of the other results were omitted from the sample, so actives are more common in it than they were.
Reported toxicity values for a set of compounds
ASSAY READOUT: toxicity (%)

# COMPOUND, OBS VALUE
records = [
    ("CCOC(=O)c1[nH]c2c(c1C)C(=O)CC(c1ccc(N(C)C)cc1)C2 (stereo not given)", 9.96),
    ("CCN(CC)C(=O)C(=O)c1cn(CC(=O)NCc2ccc3c(c2)OCO3)c2ccccc12", 7.75),
    ("NC(=O)c1ccc(NC(=O)COC(=O)c2c3c(nc4ccccc24)/C(=C\\c2ccc4c(c2)OCO4)CCC3)cc1", 8.9),
    ("C=CCn1c(CC(=O)Nc2cccc(OC)c2)nnc1SCC(=O)NC1CCCCC1", 1.42),
    ("O=C(CN1CCN(Cc2ccc(F)cc2Cl)C1=O)NCc1cccs1", 2.53),
    ("Cc1cc(C)cc(C(=O)NCC(=O)OCC(=O)N2CCCCC2)c1", 6.66),
    ("CCOC(=O)N1CCN(C(=O)c2ccccc2N(Cc2ccccc2)S(=O)(=O)c2ccc(OC)cc2)CC1", 42.6),
    ("CCOC(=O)N/N=C/c1cn(Cc2ccccc2Cl)c2ccccc12", 3.67),
    ("CC(Sc1nnc2c(n1)C1CCC2(C)C1(C)C)C(=O)Nc1ccccc1 (stereo not given)", 9.4),
    ("Cn1cnnc1SCC(=O)Nc1ccc(N2CCOCC2)cc1", 7.15),
    ("Cc1nn(CC2CC2)c(=O)n1N(C)c1ncc(C(F)(F)F)cc1Cl", 3.78),
    ("COc1ccc(-n2nnnc2-c2nc3ccccc3s2)cc1", 1.66),
    ("CCOc1cccc(-c2nnc3sc(COc4ccc(OC)cc4)nn23)c1", 2.39),
    ("COc1ccc(NC(=O)CSc2nnc(-c3ccccc3F)n2C2CC2)cc1S(N)(=O)=O", 10.7),
    ("COC(=O)N/N=C/c1cn(CCCOc2ccc(C)cc2)c2ccccc12", 0.806),
    ("CCc1nc2ccccc2c(C(=O)NCc2ccc(OC)cc2)c1C", 5.3),
    ("CC(=O)c1ccc(S(=O)(=O)Nc2ccc(C(=O)NCC(c3ccccc3)N(C)C)cc2)cc1 (stereo not given)", 3.99),
    ("COc1ccc(CC(NC(C)=O)C(=O)NC2CCN(C(=O)C3CC3)CC2)cc1OC (stereo not given)", 9.53),
    ("CCCOC(=O)c1[nH]c2c(c1C)C(=O)CC(c1cc(OC)c(OC)c(OC)c1)C2 (stereo not given)", 9.25),
    ("CCCCNC(=O)CSc1nc2n[nH]c(C)c2c(=N)n1-c1cccc(Cl)c1C", 5.31),
    ("Cc1onc(C(=O)NCc2ccc(F)cc2)c1[N+](=O)[O-]", 6.2),
    ("CCc1ccccc1NC(=S)N(CCN1CCCCCC1)Cc1ccco1", 2.58),
    ("CCc1ccc(-n2c(=S)sc3c(=O)n(-c4ccccc4OC)c(=S)[nH]c32)cc1", 6.79),
    ("Cc1ccc(-c2cc(=O)c3ccc(Cl)cc3[nH]2)cc1", 1.49),
    ("CCn1cc(CN2CCCC(CNS(=O)(=O)Cc3ccccc3)C2)cn1 (stereo not given)", 8.22),
    ("C[n+]1ccccc1C1CCCC/C1=N\\Nc1ccc([N+](=O)[O-])cc1[N+](=O)[O-] (stereo not given)", 5.84),
    ("CCOc1cccc(-n2nnnc2-c2ccc(OC)cc2)c1", 41.8),
    ("CC(C)CNC(=O)CC(NCC(C)C)C(=O)O (stereo not given)", 6.47),
    ("Cn1c2ccccc2c(=O)c2c(=O)n(Cc3ccco3)c(COc3ccccc3)nc21", 19.6),
    ("Cc1nnc(NC(=O)CSc2nccn2-c2cccc(C)c2C)s1", 64.4),
]

###

Test: tubulin staining increase by stabilizing compounds – imaging, high-content imaging, primary screen (AID 2205)
Details: HeLa tubulin immunostaining HCS, 24 h, at 10 µM; measured here: nuclear condensation Hoechst responders, stronger effect = higher value, share of cells brighter than vehicle mean+2SD
Screen size: about 200,000 compounds; about 1,600 (0.8%) were called active. The sample as a whole holds a higher share of actives than the screen did.
Reported % Hoechst-high responders values for a set of compounds

# COMPOUND, RESULT UNITS, % Hoechst-high responders
rows = [
    ("Cc1ccc(S(=O)(=O)N(C)C2(C)CCS(=O)(=O)C2)cc1 (centres undefined)", "%", 1.21),
    ("CSc1ncccc1C(=O)N1CCCC(CCC(=O)NCc2ccccc2F)C1 (centres undefined)", "%", 1.74),
    ("CC(=O)c1ccc(S(=O)(=O)Nc2ccc(C(=O)NCC(c3ccccc3)N(C)C)cc2)cc1 (centres undefined)", "%", 1.41),
    ("CCOc1ccc(Br)cc1S(=O)(=O)Nc1ccc(C(=O)OC(C)C(=O)N(C)c2ccccc2)cc1 (centres undefined)", "%", 0.626),
]

###

Test: tubulin staining increase by stabilizing compounds – imaging, high-content imaging, primary screen (AID 2205);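 on % tubulin-high responders: anti alpha tubulin signal scored within the nucleus-defined area of each cell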
Conditions: HeLa tubulin immunostaining HCS, 24 h, at 10 µM; stronger effect = higher value, share of cells brighter than vehicle mean+2SD
Among all 200,000 compounds or so, about 1,600 (0.8%) were called active. The entries come from a sample that favours actives as a whole.
Reported % tubulin-high responders values for a set of compounds
ASSAY READOUT: % tubulin-high responders (%)

# GIVEN SMILES, ASSAY READOUT, RESULT UNITS, OBS VALUE
data = [
    ("CCOc1ccc(NC(=O)CCC(=O)N/N=C/c2ccc([N+](=O)[O-])s2)cc1", "% tubulin-high responders", "%", 4.38),
    ("C/[N+]([O-])=C\\c1ccc([N+](=O)[O-])o1", "% tubulin-high responders", "%", 1.72),
    ("COc1ccccc1OCCNC(=O)c1cc([N+](=O)[O-])cc([N+](=O)[O-])c1", "% tubulin-high responders", "%", 2.35),
    ("N=C1C(c2nc3ccccc3s2)=C(O)CN1NC(=O)c1ccc([N+](=O)[O-])cc1", "% tubulin-high responders", "%", 9.65),
]

###

Experiment: tubulin staining increase by stabilizing compounds – imaging, high-content imaging, primary screen (AID 2205)
Conditions: HeLa tubulin immunostaining HCS, 24 h, at 10 µM; measured here: nuclear condensation Hoechst responders, stronger effect = higher value, share of cells brighter than vehicle mean+2SD
The whole screen tested about 200,000 compounds, of which about 1,600 (0.8%) were called active. This is one part of a sample in which actives are shown more often than they occur.

# COMPOUND, % Hoechst-high responders, %
records = [
    ("O=C(COC(=O)c1cc(S(=O)(=O)N2CCCCC2)ccc1Cl)NCc1ccco1", 2.04),
    ("C=C(C)COc1ccc(-c2n[nH]c(C)c2-c2ccccc2)c(O)c1", 2.28),
    ("Cc1ccc(NC(=O)CC2S/C(=N/N=C3\\CCCc4ccccc43)NC2=O)cc1 (stereo unspecified)", 2.08),
    ("CCCCN1C(=O)CCC(C(=O)O)C1c1ccc(OC)cc1 (stereo unspecified)", 2.91),
    ("O=c1oc2ccccc2cc1-c1cn(-c2ccccc2)c(=S)[nH]1", 36.5),
    ("COc1ccc(C(=O)n2nc(-c3ccc(Cl)cc3)nc2N)cc1OC", 2.89),
    ("COc1ccc(C(=O)Nc2ccc(F)cc2F)cc1", 1.66),
    ("O=C(NN=C1CCC(=NNC(=O)c2cccnc2)CC1)c1cccnc1", 2.04),
    ("COc1ccccc1C(=O)n1nc(-c2ccccc2)nc1N", 2.45),
    ("O=C(/C(=C/c1cccc(Cl)c1)c1nc2ccccc2[nH]1)c1ccccc1", 42.6),
    ("C=CCn1cc(C(=O)NCc2ccc(Cl)cc2)c(=O)c2cc(S(=O)(=O)N(CC)CC)ccc21", 2.4),
]
